From: patent US20110105397A1

- Measured Target: T1, human corticotrophin releasing hormone receptor type 2 (CRHR2) (human) (UniProt Q13324)
- T1 sequence (looked up): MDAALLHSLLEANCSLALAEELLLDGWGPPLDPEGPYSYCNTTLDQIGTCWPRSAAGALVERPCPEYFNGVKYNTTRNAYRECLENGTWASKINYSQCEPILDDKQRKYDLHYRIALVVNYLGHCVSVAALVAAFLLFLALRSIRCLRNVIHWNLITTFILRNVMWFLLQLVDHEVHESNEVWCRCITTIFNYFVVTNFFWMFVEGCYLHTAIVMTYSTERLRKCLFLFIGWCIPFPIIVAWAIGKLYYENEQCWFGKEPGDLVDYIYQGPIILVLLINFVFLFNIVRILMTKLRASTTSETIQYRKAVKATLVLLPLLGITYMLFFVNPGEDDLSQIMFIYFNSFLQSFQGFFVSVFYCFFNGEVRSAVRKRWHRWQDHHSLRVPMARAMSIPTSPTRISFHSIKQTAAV
- Experiment Notes: radioligand competition against [125I]-anti-sauvagine-30, membranes of SK-N-MC cells with human CRHR2
Where no end group is shown, it is not given here.
Measured Parameter: pKI

Example cases with answers are listed next.
Binder | pKI
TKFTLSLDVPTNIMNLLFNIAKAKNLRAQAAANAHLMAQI-NH2 (40-amino-acid peptide; also called h-SCP) [Human stresscopin with amidated C-terminus] | 5.71 -log10(M)
FHLLRKMIEIEKQEKEKQQAANNRLLLDTI-NH2 (also called SV30; AS-30) [anti-sauvagine-30] | 7.78 -log10(M)

# evaluate next
Any idea what its pKI is? The binder is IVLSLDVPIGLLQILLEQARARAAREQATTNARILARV-NH2 [human urocortin 2]
7.74 -log10(M)
